Target: human CD47-IgV-Domain protein (human), Q08722
Sequence (Q08722 19-141): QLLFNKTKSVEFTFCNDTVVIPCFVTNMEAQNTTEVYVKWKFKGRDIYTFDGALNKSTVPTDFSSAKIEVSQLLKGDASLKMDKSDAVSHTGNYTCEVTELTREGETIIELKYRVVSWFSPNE
Experiment: MST; human or mouse CD47-IgV-Domain protein labeled with NT-647, about 50 to 200 nM; unlabeled peptides or ligand protein diluted serially; 50 mM Tris, 150 mM NaCl, 10 mM MgCl2, 0.05% Tween-20, 0.5% DMSO, pH 7.5; 30 min at room temperature; 25°C
recorded-endpoint: Kd (nM)
# unit: nM | format: bare number

Problem: Name the reported Kd value associated with the binder AWSATWSNYWRH (modifications not checked) [pep-20]
Result: 2910
